The values you see were collected from paper PMC5365654.

assay-target: BcII (Bacillus cereus, UniProt P04190)
Sequence (P04190 31-257): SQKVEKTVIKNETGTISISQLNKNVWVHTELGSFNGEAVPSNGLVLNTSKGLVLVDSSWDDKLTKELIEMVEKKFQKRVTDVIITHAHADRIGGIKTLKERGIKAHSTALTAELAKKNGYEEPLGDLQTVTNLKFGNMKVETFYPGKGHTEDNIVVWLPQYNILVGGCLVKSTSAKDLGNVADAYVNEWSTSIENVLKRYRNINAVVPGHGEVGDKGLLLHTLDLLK
assay-procedure: FC5 fluorogenic metallo-β-lactamase inhibition assay, BcII
Assay type: biochemical
measurement-context: pH 6.5; preincubation 360 min; FC5 substrate; read-out: IC50, μM (mean ± SD) for BcII, pH 6.5
Method: To investigate the extent to which cyclic boronates inhibit class C β-lactamases as well as the important class A ESBL and class D carbapenemase targets, we used a fluorogenic assay ([22]) to screen the cyclic boronates, which we have found to inhibit other β-lactamases ([21]), against them. […] Inhibition assays were carried out using FC5 as a fluorogenic reporter substrate ([22]). […] Residual enzyme activity was determined for a range of inhibitor concentrations. […]
property-measured: IC50 (µM)

> print(dat)
                                   compound  property.measured  measurement.units  obs.value
1  O=C(O)C(S)c1ccccc1 (racemic) [(±)-Thiomandelic acid, thiomandelic acid]               IC50                 µM          2
